Data credit: patent US20240041042A1

# Test system: Zea mays (ZEAMX)
# Type: in vivo
# condition: crop plant compatibility, 80 g/ha, effect vs untreated controls
# Method: Seeds of monocotyledonous and dicotyledonous weeds and crop plants are placed in sandy loam in plastic or organic planting pots, covered with soil and cultivated in a greenhouse under controlled growth conditions. 2 to 3 weeks after sowing, the test plants are treated at the one-leaf stage. […]
assay_metric: Post-emergence action against ZEAMX in %
Answer format reminder: number followed by unit.

- compound: "COC(=O)CN(C)C(=O)COc1nn(-c2ccccn2)c(-c2ccc(F)nc2)c1Br"
  experimental_target: "Zea mays (ZEAMX)"
  Post-emergence action against ZEAMX in %: "0%"

In: Please report Post-emergence action against ZEAMX in % for the following compound: C[C@@H](Oc1nn(-c2ncccc2F)c(-c2ccc(F)nc2)c1Br)C(=O)OCc1ccccn1
Out: 10%

In: Please report Post-emergence action against ZEAMX in % for the following compound: Cc1ncccc1-n1nc(OCC(=O)O)c(Br)c1-c1cncc(F)c1
Out: 0%

In: Please report Post-emergence action against ZEAMX in % for the following compound: CCOC(=O)COc1nn(-c2ccccn2)c(-c2ccc(Cl)nc2)c1Cl
Out: 0%

In: Please report Post-emergence action against ZEAMX in % for the following compound: CCOC(=O)COc1nn(-c2ncccc2F)c(-c2ccc(F)nc2)c1C(F)(F)F
Out: 0%

In: Please report Post-emergence action against ZEAMX in % for the following compound: COC(=O)C1CCN(C(=O)COc2nn(-c3ccccn3)c(-c3ccc(F)nc3)c2Br)C1 (centres unmarked)
Out: 10%

In: Please report Post-emergence action against ZEAMX in % for the following compound: COC(=O)C1CCCN1C(=O)COc1nn(-c2ccccn2)c(-c2ccc(F)nc2)c1Br (centres unmarked)
Out: 10%

In: Please report Post-emergence action against ZEAMX in % for the following compound: COC(=O)[C@@H](C)Oc1nn(-c2nc(F)ccc2F)c(-c2ccc(F)nc2)c1Br
Out: 10%

----------
# System: Oryza sativa (ORYSA)
# Format: in vivo
# condition: pre-emergence, 80 g/ha, crop plant compatibility, in comparison to untreated controls
assay_metric: Pre-emergence action against ORYSA in % (%)
Response body: numeric value in %, unit text excluded.

- molecule: "O=C(O)C1CCCN1C(=O)COc1nn(-c2ccccn2)c(-c2ccc(F)nc2)c1Br (centres unmarked)"
  Pre-emergence action against ORYSA in % [%]: 0

Below: the item to evaluate.
In: // fetch Pre-emergence action against ORYSA in %; item: COC(=O)COc1nn(-c2ncccc2C(F)(F)F)c(-c2cncc(F)c2)c1I ; system: Oryza sativa (ORYSA)
Out: 10

----------
The reader will find reported Pre-emergence action against VIOTR in % values listed item by item below.
# System: Viola tricolor (VIOTR)
# protocol_notes: Pre-emergence herbicidal action against VIOTR
# Type: in vivo
# condition: 320 g/ha, Viola tricolor
Response body: numeric value in %, unit text excluded.

- compound: "O=C(COc1nn(-c2ncccc2C(F)(F)F)c(-c2cncc(F)c2)c1Br)OCC1CCOC1 (racemic)"
  experimental_target: "Viola tricolor (VIOTR)"
  scale_unit: "%"
  Pre-emergence action against VIOTR in %: 100
- compound: "COC(=O)C(C)COC(=O)[C@@H](C)Oc1nn(-c2ccccn2)c(-c2cncc(F)c2)c1Cl (stereo partly shown)"
  experimental_target: "Viola tricolor (VIOTR)"
  scale_unit: "%"
  Pre-emergence action against VIOTR in %: 100
- compound: "CCOC(=O)COc1nn(-c2ncccc2F)c(-c2ccc(F)nc2)c1Cl"
  experimental_target: "Viola tricolor (VIOTR)"
  scale_unit: "%"
  Pre-emergence action against VIOTR in %: 100

Below: the item to evaluate.
In: Please report Pre-emergence action against VIOTR in % for the following compound: COC(=O)[C@@H](C)Oc1nn(-c2ncccc2F)c(-c2ccc(F)nc2)c1I
Out: 100
